Cited source for all entries: patent US20240241135A1

Molecular target: T1, recombinant human regenerating islet-derived protein 1α (REG1A) (human, UniProt P05451 23-166, limits assumed)
T1 construct: also called recombinant human REG1A; recombinant REG1A
T1 sequence (looked up): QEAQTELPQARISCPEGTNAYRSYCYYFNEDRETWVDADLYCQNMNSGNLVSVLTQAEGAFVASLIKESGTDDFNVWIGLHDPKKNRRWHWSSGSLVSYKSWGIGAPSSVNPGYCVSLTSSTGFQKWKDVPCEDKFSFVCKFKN
Test: sandwich ELISA; capture 12F12A10; REG1A 0 ng/mL (blank)
READOUT_LABEL: OD value

Query string: // lookup OD value for antibody 4H8F1 (antibody, V domains shown, Mouse monoclonal from hybridoma, stated mouse IgG1/Kappa; also called 4H8F1-biotin; Antibody 1) VH: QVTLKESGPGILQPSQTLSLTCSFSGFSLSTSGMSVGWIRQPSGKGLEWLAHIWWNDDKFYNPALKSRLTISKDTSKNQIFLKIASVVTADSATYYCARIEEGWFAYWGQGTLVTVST VL: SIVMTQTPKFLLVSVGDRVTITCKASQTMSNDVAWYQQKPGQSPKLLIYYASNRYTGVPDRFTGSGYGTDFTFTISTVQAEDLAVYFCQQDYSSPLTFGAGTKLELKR
Result string: 0.068 OD
